Measured target: Recombinant Human Bruton's tyrosine kinase (Btk) (Homo sapiens, UniProt Q06187)
Construct: Full length human BTK (hBTK, Genbank#NM_000061.2) was cloned into pFastBac-HTB vector; 6XHis (N); made in house; host or cells: Sf9 cells (Bac-to-Bac baculovirus expression system)
Sequence (Q06187 whole entry): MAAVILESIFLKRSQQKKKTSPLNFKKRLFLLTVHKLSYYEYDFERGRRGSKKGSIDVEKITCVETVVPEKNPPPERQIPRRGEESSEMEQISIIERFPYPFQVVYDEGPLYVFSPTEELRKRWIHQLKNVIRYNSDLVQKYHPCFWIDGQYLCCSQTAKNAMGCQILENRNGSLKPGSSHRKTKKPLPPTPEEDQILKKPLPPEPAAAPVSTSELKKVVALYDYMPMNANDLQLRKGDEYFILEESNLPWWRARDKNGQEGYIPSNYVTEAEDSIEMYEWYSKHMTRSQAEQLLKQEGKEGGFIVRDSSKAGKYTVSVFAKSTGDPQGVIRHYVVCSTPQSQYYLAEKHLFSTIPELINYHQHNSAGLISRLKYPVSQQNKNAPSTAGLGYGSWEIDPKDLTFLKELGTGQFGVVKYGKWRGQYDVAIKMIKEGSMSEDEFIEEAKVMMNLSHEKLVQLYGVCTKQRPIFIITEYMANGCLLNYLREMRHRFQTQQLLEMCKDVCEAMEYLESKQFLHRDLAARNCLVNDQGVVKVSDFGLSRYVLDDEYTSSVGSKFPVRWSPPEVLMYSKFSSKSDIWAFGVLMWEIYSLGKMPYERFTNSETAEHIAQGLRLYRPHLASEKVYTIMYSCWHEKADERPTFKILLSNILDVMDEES
Assay explanation: Recombinant Human Bruton's tyrosine kinase (Btk) inhibition assay (HTRF KinEASE-TK)
Assay type: biochemical
Experimental conditions: 20 ng/ml rhBtk, 77 µM ATP (KM), 1 µM TK-Biotin Substrate, 90 minutes; read-out: IC50 (nM) in recombinant hBTK assay
Recorded metric: IC50 (nM)

{"columns": ["Molecule", "Measured target", "Assay value"],
 "data": [
  ["C[C@H]1CN(Cc2ccc(-c3cc4c(-c5cc(F)cc(N6CCOc7cc(C8CC8)cc(F)c7C6=O)c5CO)ccnc4[nH]3)nc2)CCN1CC(F)F [Example 5]", "Recombinant Human Bruton's tyrosine kinase (Btk) (Homo sapiens, UniProt Q06187)", 3]
]}

A: O=C1c2c(F)cc(C3CC3)cc2OCCN1c1cc(F)cc(-c2ccnc3[nH]c(-c4ccc(CN5CCN(CC(F)F)CC5)cn4)cc23)c1CO [Example 3]
B: C[C@H]1CN(CC(F)F)CCN1Cc1ccc(-c2cc3c(-c4cc(F)cc(N5CCOc6cc(C7CC7)cc(F)c6C5=O)c4CO)ccnc3[nH]2)nc1 [Example 6]
Could you point out whether the larger IC50 belongs to A or to B ? Pick one and reply with its label.
B
